STUDY TARGET: VR1/TRPV1 receptor (Homo sapiens)
Sequence (Q8NER1 whole entry): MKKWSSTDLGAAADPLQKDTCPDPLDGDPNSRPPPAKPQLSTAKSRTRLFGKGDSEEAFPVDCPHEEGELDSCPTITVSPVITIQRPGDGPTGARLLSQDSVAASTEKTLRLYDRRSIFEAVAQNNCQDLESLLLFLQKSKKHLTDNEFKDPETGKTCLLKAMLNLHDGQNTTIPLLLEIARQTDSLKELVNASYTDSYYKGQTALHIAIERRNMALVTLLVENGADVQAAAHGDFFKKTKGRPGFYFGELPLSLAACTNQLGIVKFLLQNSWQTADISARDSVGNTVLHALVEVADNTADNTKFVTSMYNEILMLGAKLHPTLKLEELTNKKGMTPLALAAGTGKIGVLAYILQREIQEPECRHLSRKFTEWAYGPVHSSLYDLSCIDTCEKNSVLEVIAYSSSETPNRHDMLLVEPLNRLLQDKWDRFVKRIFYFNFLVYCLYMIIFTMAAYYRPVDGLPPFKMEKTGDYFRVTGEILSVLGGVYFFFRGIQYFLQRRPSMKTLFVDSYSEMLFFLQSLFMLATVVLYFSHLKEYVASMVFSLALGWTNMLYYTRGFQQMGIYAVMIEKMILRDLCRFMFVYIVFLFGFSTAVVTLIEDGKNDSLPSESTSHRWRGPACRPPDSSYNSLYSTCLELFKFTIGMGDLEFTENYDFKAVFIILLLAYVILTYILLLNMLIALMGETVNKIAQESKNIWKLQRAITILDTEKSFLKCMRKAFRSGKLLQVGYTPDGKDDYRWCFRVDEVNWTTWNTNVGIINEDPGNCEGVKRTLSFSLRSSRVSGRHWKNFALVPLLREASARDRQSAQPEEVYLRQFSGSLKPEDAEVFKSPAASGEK
EXPERIMENT: IC50 (human) after pH stimulus
Type: cell-based
REPORTED CONDITIONS: table 4
Simple rule here: IC50 less than 40 nM is 1, otherwise -1.

Sample answers from the record:
{"COMPOUND": "CCC1CCC(Oc2nc(C(F)(F)F)ccc2CNC(=O)C(C)c2ccc(NS(C)(=O)=O)c(F)c2)CC1 (stereo not shown)", "GROUP LABEL": -1}
{"COMPOUND": "CC(C)Oc1nc(C(C)(C)C)ccc1CNC(=O)C(C)c1ccc(NS(C)(=O)=O)c(F)c1 (stereo not shown)", "GROUP LABEL": -1}
{"COMPOUND": "C[C@@H](C(=O)NCc1ccc(C(F)(F)F)cc1N1CCCCC1)c1ccc(NS(C)(=O)=O)c(F)c1", "GROUP LABEL": -1}

INPUT: Lab log: compare recorded IC50 with 40 nM; is it strictly lower for CC(C(=O)NCc1ccc(C(F)(F)F)cc1-c1ccc(C(C)(C)C)cc1)c1ccc(NS(C)(=O)=O)c(F)c1 (stereo not shown) ?
OUTPUT: 1

INPUT: Lab log: compare recorded IC50 with 40 nM; is it strictly lower for CC(C(=O)NCc1ccc(C(F)(F)F)nc1CCc1ccc(F)cc1)c1ccc(NS(C)(=O)=O)c(F)c1 (stereo not shown) ?
OUTPUT: -1
